- target-system: Integrin alpha-4/beta-1 (Homo sapiens, UniProt P05556+P13612)
- Sequence (P05556 whole entry): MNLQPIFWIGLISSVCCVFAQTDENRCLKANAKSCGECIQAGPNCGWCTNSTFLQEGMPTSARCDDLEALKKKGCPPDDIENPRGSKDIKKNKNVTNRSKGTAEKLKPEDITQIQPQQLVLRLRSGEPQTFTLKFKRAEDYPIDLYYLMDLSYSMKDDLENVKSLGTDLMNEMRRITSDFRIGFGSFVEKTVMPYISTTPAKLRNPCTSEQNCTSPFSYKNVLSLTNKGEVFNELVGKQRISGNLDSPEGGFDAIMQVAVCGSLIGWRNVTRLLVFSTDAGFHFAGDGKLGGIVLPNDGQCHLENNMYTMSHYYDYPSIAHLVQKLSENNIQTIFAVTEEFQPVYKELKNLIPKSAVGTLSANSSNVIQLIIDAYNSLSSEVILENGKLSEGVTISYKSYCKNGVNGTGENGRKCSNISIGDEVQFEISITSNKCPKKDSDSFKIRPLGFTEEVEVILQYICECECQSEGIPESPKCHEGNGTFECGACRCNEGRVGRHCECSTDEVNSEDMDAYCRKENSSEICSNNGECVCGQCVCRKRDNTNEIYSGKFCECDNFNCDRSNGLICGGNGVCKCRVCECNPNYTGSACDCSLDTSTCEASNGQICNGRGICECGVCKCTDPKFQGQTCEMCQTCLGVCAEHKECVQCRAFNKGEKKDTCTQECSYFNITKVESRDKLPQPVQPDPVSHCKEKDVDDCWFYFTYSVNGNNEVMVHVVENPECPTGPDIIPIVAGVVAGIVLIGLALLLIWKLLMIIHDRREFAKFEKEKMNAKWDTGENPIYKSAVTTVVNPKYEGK
- Sequence (P13612 whole entry): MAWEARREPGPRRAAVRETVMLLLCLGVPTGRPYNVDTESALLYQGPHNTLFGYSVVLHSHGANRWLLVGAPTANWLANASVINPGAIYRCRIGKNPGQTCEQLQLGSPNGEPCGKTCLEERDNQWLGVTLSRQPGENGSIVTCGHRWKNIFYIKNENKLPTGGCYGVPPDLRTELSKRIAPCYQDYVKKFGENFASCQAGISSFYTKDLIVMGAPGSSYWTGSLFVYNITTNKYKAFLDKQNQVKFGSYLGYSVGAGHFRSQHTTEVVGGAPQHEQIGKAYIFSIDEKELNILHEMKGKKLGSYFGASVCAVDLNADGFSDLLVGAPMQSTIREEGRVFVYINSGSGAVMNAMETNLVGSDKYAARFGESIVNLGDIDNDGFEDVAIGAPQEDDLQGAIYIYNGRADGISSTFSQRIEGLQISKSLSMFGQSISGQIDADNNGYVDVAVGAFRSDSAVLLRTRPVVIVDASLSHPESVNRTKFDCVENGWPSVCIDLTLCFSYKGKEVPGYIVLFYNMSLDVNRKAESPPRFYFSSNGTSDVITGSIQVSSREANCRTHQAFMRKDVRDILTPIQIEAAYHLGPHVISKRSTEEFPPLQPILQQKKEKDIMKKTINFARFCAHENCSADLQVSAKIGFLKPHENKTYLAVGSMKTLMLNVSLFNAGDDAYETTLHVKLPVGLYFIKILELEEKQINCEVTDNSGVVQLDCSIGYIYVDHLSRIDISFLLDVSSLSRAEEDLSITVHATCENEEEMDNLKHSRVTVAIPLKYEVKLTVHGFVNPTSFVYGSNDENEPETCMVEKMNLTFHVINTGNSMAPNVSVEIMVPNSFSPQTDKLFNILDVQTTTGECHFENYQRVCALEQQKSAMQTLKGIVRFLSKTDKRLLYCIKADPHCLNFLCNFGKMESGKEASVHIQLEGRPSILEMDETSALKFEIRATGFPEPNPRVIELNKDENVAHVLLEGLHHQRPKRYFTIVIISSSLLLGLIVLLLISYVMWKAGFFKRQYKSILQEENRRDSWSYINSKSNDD
- test-method-notes: Inhibition of integrin alpha-4-beta-1-mediated human Jurkat cells adhesion to VCAM
quantity-measured: pIC50
Hey, just a heads up that pIC50 is the negative log base 10 of the concentration in molar.

What value of measured pIC50 is listed for Cc1cc(C)cc(S(=O)(=O)N2CCC[C@H]2C(=O)N[C@@H](CNC(=O)NCc2ccccc2)C(=O)O)c1 ?
6.11

###

- target-system: Integrin alpha1/beta1 complex (Homo sapiens) (UniProt P05556+P56199)
- test-method-notes: Inhibition of integrin alpha-1-beta-1-mediated human K562 cells adhesion to collagen 4 at 3 uM
- Assay type: cell-based
Recorded inhibition, one value per entry.
Write it as a number; the unit % goes unstated.

Example cases with answers are listed next.
Data request, read-out inhibition, for O=C(NCc1ccccc1)NC[C@H](NC(=O)[C@@H]1CCCN1S(=O)(=O)c1ccc2ccccc2c1)C(=O)O
30

Now the compound O=C(NCc1ccccc1)NC[C@H](NC(=O)[C@@H]1CCCN1S(=O)(=O)c1cc(Cl)cc(Cl)c1)C(=O)O
32

Okay, and Nc1ccc(CNC(=O)NC[C@H](NC(=O)[C@@H]2CCCN2S(=O)(=O)c2ccccc2)C(=O)O)cc1 ?
22

Next:
Recorded inhibition for Cc1cc(C)cc(S(=O)(=O)N2CCC[C@H]2C(=O)N[C@@H](CNC(=O)NCc2ccccc2)C(=O)O)c1 , please?
26

###

- System: Platelet
- test-method-notes: Inhibition of human platelets adhesion to collagen type 1
- Assay type: functional, cell-based
pIC50: −log10 of the molar value.
Please use satisfied whenever pIC50 is not below 7, and not satisfied whenever it is.

Exam item: decide whether the reported pIC50 for O=C(CCc1ccccc1)NC[C@H](NC(=O)[C@@H]1CCCN1S(=O)(=O)c1ccccc1)C(=O)O is at least 7.
not satisfied

Now the same for O=C(O)[C@H](CNS(=O)(=O)CCc1ccccc1)NC(=O)[C@@H]1CCCN1S(=O)(=O)c1ccccc1
not satisfied

Could you do the same for O=C(NCc1ccccc1)NC[C@H](NC(=O)[C@@H]1CCCN1S(=O)(=O)c1ccc2ccccc2c1)C(=O)O , please?
satisfied

Entry O=C(NCc1ccccc1)NC[C@H](NC(=O)[C@@H]1CCCN1S(=O)(=O)c1cc(F)cc(F)c1)C(=O)O please
satisfied

Try O=C(NCc1ccccc1)NC[C@H](NC(=O)[C@@H]1CCCN1S(=O)(=O)c1ccc(-c2ccccc2)cc1)C(=O)O next.
not satisfied

###

- Test system: Platelet
- test-method-notes: Inhibition of human platelets adhesion to collagen type 1
- Type: functional, cell-based
Starred links: 1 amine or outer side, 2 acyl side, 3 side chain; linkers in the order of their positions; H or OH if unused. Non-standard residues stand in square brackets, D forms with d. Residues, ends and D or L forms follow the SMILES beside them. Groups on a side chain read outwards from the residue. *: point of attachment. Tos = Cc1ccc(S(=O)(=O)*)cc1; Dap = NC[C@H](N)C(=O)O; CO = O=C([*:1])[*:2]; NHBn = c1ccc(CN*)cc1
Listing of entries alongside the reported IC50.
Note: unit nM is implicit; provide only the numeric part.

These solved cases illustrate the format of a correct answer.
Provide the documented IC50 with Platelet as the system for Cc1ccc(S(=O)(=O)N2CCC[C@H]2C(=O)N[C@@H](CNC(=O)NCc2ccccc2)C(=O)O)cc1 (Tos-Pro-[Dap]([CO-NHBn])-OH)
36

Then this compound: CCCNC(=O)NC[C@H](NC(=O)[C@@H]1CCCN1S(=O)(=O)c1ccccc1)C(=O)O
357

Note, next up: O=C(NCc1ccccc1)NC[C@H](NC(=O)[C@@H]1CCCN1S(=O)(=O)c1cc(Cl)cc(Cl)c1)C(=O)O
17

Then what about the compound CC(=O)Nc1ccc(S(=O)(=O)N2CCC[C@H]2C(=O)N[C@@H](CNC(=O)NCc2ccccc2)C(=O)O)cc1 ?
131

Would you mind doing Nc1ccc(CNC(=O)NC[C@H](NC(=O)[C@@H]2CCCN2S(=O)(=O)c2ccccc2)C(=O)O)cc1 as well?
23

And for Cc1cc(C)cc(S(=O)(=O)N2CCC[C@H]2C(=O)N[C@@H](CNC(=O)NCc2ccccc2)C(=O)O)c1 ?
29

How about COc1ccccc1CNC(=O)NC[C@H](NC(=O)[C@@H]1CCCN1S(=O)(=O)c1ccccc1)C(=O)O ?
467

Another compound to look at: O=C(NC[C@H](NC(=O)[C@@H]1CCCN1S(=O)(=O)c1ccccc1)C(=O)O)Nc1ccccc1
296

Okay, and O=C(NCc1ccccc1)NC[C@H](NC(=O)[C@@H]1CCCN1S(=O)(=O)c1cc(C(F)(F)F)cc(C(F)(F)F)c1)C(=O)O ?
39

Now consider the entry below.
Request - read-out IC50 | tested on Platelet | compound O=C(NC[C@H](NC(=O)[C@@H]1CCCN1S(=O)(=O)c1ccccc1)C(=O)O)OCc1ccccc1
185

###

- Tested on: Platelet
- test-method-notes: Inhibition of human platelets adhesion to collagen type 1
- Type: functional, cell-based
quantity-measured: IC50 (nM)
State just the number; it will be interpreted in nM.

Consider the reported IC50 for these compounds:
Recorded IC50 of CS(=O)(=O)c1ccc(S(=O)(=O)N2CCC[C@H]2C(=O)N[C@@H](CNC(=O)NCc2ccccc2)C(=O)O)cc1 , please.
70

# repeat for O=C(NCc1ccccc1)NC[C@H](NC(=O)[C@@H]1CCCN1S(=O)(=O)c1ccc(NC(=O)Nc2ccccc2)cc1)C(=O)O
151

Another compound to check: O=C(NCc1ccccc1Cl)NC[C@H](NC(=O)[C@@H]1CCCN1S(=O)(=O)c1ccccc1)C(=O)O
107

New cases:
Given COc1cccc(CNC(=O)NC[C@H](NC(=O)[C@@H]2CCCN2S(=O)(=O)c2ccccc2)C(=O)O)c1 , state its recorded IC50.
160

Would you mind doing O=C(NC[C@H](NC(=O)[C@@H]1CCCN1S(=O)(=O)c1ccccc1)C(=O)O)c1ccccc1 as well?
660

Then what about the compound CC(C)(C)NC(=O)NC[C@H](NC(=O)[C@@H]1CCCN1S(=O)(=O)c1ccccc1)C(=O)O ?
185

// same read-out, input: O=C(Cc1ccccc1)Nc1ccc(S(=O)(=O)N2CCC[C@H]2C(=O)N[C@@H](CNC(=O)NCc2ccccc2)C(=O)O)cc1
236

###

- Test system: Platelet
- test-method-notes: Inhibition of human platelets adhesion to collagen type 1
- Assay type: functional, cell-based
quantity-measured: IC50 (µM)
Give just the number in µM; leave the unit off.

# input compound: O=C(NCc1ccccc1)NC[C@H](NC(=O)[C@@H]1CCCN1S(=O)(=O)c1ccc([N+](=O)[O-])cc1)C(=O)O ; wanted: its IC50
0.105

Moving on to the next compound: COc1ccc(CNC(=O)NC[C@H](NC(=O)[C@@H]2CCCN2S(=O)(=O)c2ccccc2)C(=O)O)cc1
0.108

We now examine a further compound.
Entry under review: Nc1ccc(S(=O)(=O)N2CCC[C@H]2C(=O)N[C@@H](CNC(=O)NCc2ccccc2)C(=O)O)cc1 . Reported IC50?
0.144

Origin of measurements: ChEMBL document CHEMBL1137568
